molecular target: human 5-HT6 receptor (Homo sapiens, UniProt P50406); construct: host or cells: CHO-K1 cells, stably transfected; membranes prepared in house; experiment: Human 5-HT6 Receptor Binding Assay ([3H]LSD displacement, scintillation beads); conditions: membranes of CHO-K1 cells with recombinant human 5-HT6, 4 nM [3H]LSD; Table 1, class symbols; read-out: h5-HT6 (Ki)
Sequence (P50406 whole entry): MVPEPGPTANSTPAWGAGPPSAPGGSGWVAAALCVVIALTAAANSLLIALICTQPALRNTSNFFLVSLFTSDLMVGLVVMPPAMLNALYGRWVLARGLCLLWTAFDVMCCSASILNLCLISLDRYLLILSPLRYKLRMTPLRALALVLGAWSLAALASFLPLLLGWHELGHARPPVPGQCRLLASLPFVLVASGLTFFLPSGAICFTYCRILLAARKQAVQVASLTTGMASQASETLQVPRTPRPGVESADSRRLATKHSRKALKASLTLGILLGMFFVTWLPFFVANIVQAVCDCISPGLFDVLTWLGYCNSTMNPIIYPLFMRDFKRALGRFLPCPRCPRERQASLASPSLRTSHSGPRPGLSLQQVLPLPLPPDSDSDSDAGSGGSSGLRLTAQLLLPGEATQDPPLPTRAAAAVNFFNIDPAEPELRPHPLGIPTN
pKi: −log10 of the molar value.
pKi values for the compounds below.
readoutName: pKi

compound | readoutName | recordedValue
O=S(=O)(c1ccc2c(c1)OC1CNCCC21)c1nc2ccccc2[nH]1 (stereo not drawn) | pKi | > 6.30
CC(C)Oc1cc(F)cc(S(=O)(=O)c2ccc3c(c2)OC2CNCCC32C)c1 (stereo not drawn) | pKi | > 6.30
COc1cc(OC(C)C)cc(S(=O)(=O)c2ccc3c(c2)OC2CNCCC32)c1 (stereo not drawn) [Example 77] | pKi | > 6.30
O=S(=O)(c1ccc(Cl)c(Cl)c1)c1ccc2c3c(oc2c1)CNCC3 | pKi | > 6.30
O=S(=O)(c1ccc2c(c1)OCCO2)c1ccc2c(c1)OC1CNCCC21 (stereo not drawn) | pKi | > 6.30
CC(C)COc1cc(F)cc(S(=O)(=O)c2ccc3c(c2)OC2CNCCC32C)c1 (stereo not drawn) | pKi | > 6.30
O=S(=O)(c1cccc(F)c1)c1ccc2oc3c(c2c1)CCNC3CCC(F)(F)F (stereo not drawn) | pKi | 6.00 to 6.30
O=S(=O)(c1ccc(Oc2ccccc2)cc1)c1ccc2c(c1)C1CCNCC1O2 (stereo not drawn) | pKi | < 6.00
COc1ccc(S(=O)(=O)c2ccc3c4c(oc3c2)CNCC4)cc1F | pKi | > 6.30
